In this section, each of the molecules is paired with its reported Tmax.
# protocol.description: Pharmacokinetic analysis
# Type: in vivo, Sprague–Dawley rats
# settings: male, Sprague-Dawley, plasma; rat, oral (i.g.), 2 mg/kg
measurement.name: Tmax (h)

molecule="CCCSc1nc(F)nc2c1ncn2[C@@]1(C(=O)OCC)CSC[C@@H]1O (relative stereo) [36b]" observed=4
molecule="CCOC(=O)[C@]1(n2cnc3c(N4CCCCC4)nc(F)nc32)CSC[C@H]1O (racemic) [33a]" observed=4

====

# Test system: HeLa cells
# protocol.description: CCK-8 anti-proliferation assay, HeLa
# Assay type: cell-based, human
# settings: CCK-8, 48 h, mean ± SD, three independent experiments
Please note: IC50 exactly at 8 µM is not satisfied. Only values below 8 µM get satisfied.

molecule="CCOC(=O)C1(n2cnc3c(Cl)ncnc32)CSCC1O (single isomer, unassigned) [2b]" answer_label="not satisfied"
molecule="CCOC(=O)C1(n2cnc3c(N4CCC(F)CC4)ncnc32)CSCC1O (single isomer, unassigned) [12b]" answer_label="not satisfied"
molecule="CCOC(=O)C1(n2cnc3c(Br)ncnc32)CSCC1O (single isomer, unassigned) [3a]" answer_label="not satisfied"
molecule="CCOC(=O)C1(n2cnc3c(N4CCC(Cc5ccccc5F)CC4)ncnc32)CSCC1O (single isomer, unassigned) [17a]" answer_label="not satisfied"
molecule="CCOC(=O)C1(n2cnc3c(N4CCOCC4)ncnc32)CSCC1O (single isomer, unassigned) [9a]" answer_label="not satisfied"
molecule="CCOC(=O)C1(n2cnc3c(N4CCN(C)CC4)ncnc32)CSCC1O (stereo not drawn) [18a]" answer_label="not satisfied"
molecule="CCOC(=O)C1(n2cnc3c(Cl)ncnc32)CSCC1O (single isomer, unassigned) [2a]" answer_label="not satisfied"
molecule="CCCSc1ncnc2c1ncn2C1(C(=O)OCC)CSCC1O (single isomer, unassigned) [8a]" answer_label=satisfied
molecule="CCOC(=O)C1(n2cnc3c(N4CCC(Cc5ccccc5)CC4)ncnc32)CSCC1O (stereo not drawn) [16a]" answer_label=satisfied
molecule="CCOC(=O)C1(n2cnc3c(N4CCC(C(F)(F)F)CC4)ncnc32)CSCC1O (single isomer, unassigned) [13b]" answer_label="not satisfied"
molecule="CCOC(=O)C1(n2cnc3c(N4CCCCC4)nc(N)nc32)CSCC1O (single isomer, unassigned) [32b]" answer_label=satisfied
molecule="CCOC(=O)C1(n2cnc3c(N4CCCC4)ncnc32)CSCC1O (single isomer, unassigned) [20a]" answer_label="not satisfied"
molecule="CCCSc1nc(F)nc2c1ncn2[C@@]1(C(=O)OCC)CSC[C@@H]1O [36ba]" answer_label=satisfied
molecule="CCOC(=O)C1(n2cnc3c(N4CCSCC4)ncnc32)CSCC1O (single isomer, unassigned) [10a]" answer_label="not satisfied"

Cited source for all entries: paper PMC12278645
